The origin of these recorded values is DBAASP.

Test system: Escherichia coli DH5alpha
Consider the following molecules and their measured MIC readings.

Known MIC results, listed for orientation:
CC[C@H](C)[C@H](NC(=O)CN)C(=O)N[C@@H](CC(C)C)C(=O)NCC(=O)N[C@@H](CCCCN)C(=O)N[C@@H](CC(C)C)C(=O)N[C@@H](Cc1c[nH]c2ccccc12)C(=O)N[C@@H](CCC(=O)O)C(=O)NCC(=O)N[C@@H](Cc1ccccc1)C(=O)N[C@@H](CCCCN)C(=O)N[C@@H](CO)C(=O)N[C@H](C(=O)N[C@H](C(=O)O)C(C)C)[C@@H](C)CC ≥ 62 µM
CC(C)C[C@H](NC(=O)[C@H](C)NC(=O)[C@H](CCCCN)NC(=O)[C@H](CC(C)C)NC(=O)[C@H](C)NC(=O)[C@H](CC(C)C)NC(=O)[C@H](CCCCN)NC(=O)[C@H](CC(C)C)NC(=O)[C@H](C)NC(=O)[C@H](CC(C)C)NC(=O)[C@@H](N)CCCCN)C(=O)N[C@@H](CCCCN)C(=O)N[C@@H](C)C(=O)N[C@@H](C)C(=O)N[C@@H](CC(C)C)C(=O)N[C@@H](CCCCN)C(=O)N[C@@H](CC(C)C)C(=O)N[C@@H](C)C(=O)O ≥ 68.2 µM

Now consider the entry below.
The reported Escherichia coli DH5alpha MIC of CC(C)C[C@H](NC(=O)[C@H](CC(C)C)NC(=O)[C@H](CCCCN)NC(=O)[C@H](CO)NC(=O)[C@H](CC(C)C)NC(=O)[C@H](C)NC(=O)[C@H](CCCCN)NC(=O)[C@@H](NC(=O)[C@@H](NC(=O)[C@H](C)NC(=O)CNC(=O)[C@H](CC(C)C)NC(=O)[C@@H](N)Cc1ccccc1)C(C)C)C(C)C)C(=O)O is ≥ 36.8 µM

---

# Candida albicans ATCC 90028: MIC values follow

// below: answered compounds
CC[C@H](C)[C@H](NC(=O)[C@@H](NC(=O)[C@H](Cc1c[nH]c2ccccc12)NC(=O)[C@@H](NC(=O)[C@@H](N)CCCN=C(N)N)[C@@H](C)CC)C(C)C)C(=O)N[C@@H](CCCN=C(N)N)C(=O)N[C@@H](Cc1c[nH]c2ccccc12)C(=O)N[C@@H](CCCN=C(N)N)C(N)=O ≥ 100 µM
CC[C@H](C)[C@H](N)C(=O)N1CCC[C@H]1C(=O)N[C@@H](Cc1cnc[nH]1)C(=O)N[C@@H](C)C(=O)N[C@H](C(=O)N[C@@H](CCCCN)C(=O)N[C@@H](C)C(=O)N[C@H](C(=O)N[C@@H](CO)C(=O)N[C@@H](CC(=O)O)C(=O)N[C@@H](CC(C)C)C(=O)N[C@H](C(N)=O)[C@@H](C)CC)[C@@H](C)CC)C(C)C ≥ 200 µM

Form: item CC[C@H](C)[C@H](NC(=O)[C@H](CCCCN)NC(=O)[C@H](CC(=O)O)NC(=O)[C@H](CC(C)C)NC(=O)[C@@H](NC(=O)[C@H](CC(N)=O)NC(=O)[C@@H](NC(=O)[C@H](Cc1ccccc1)NC(=O)[C@H](CC(C)C)NC(=O)[C@H](CCCCN)NC(=O)[C@H](CCCCN)NC(=O)CN)C(C)C)C(C)C)C(=O)N[C@@H](CCCN=C(N)N)C(=O)N[C@H]1CSSC[C@@H](C(=O)O)NC(=O)CNC(=O)CNC(=O)[C@H](C)NC(=O)[C@H](C(C)C)NC(=O)[C@H](CCCCN)NC1=O ; test system Candida albicans ATCC 90028; MIC: ≥ 100 µM
